# targetUnderTest: mTOR (Homo sapiens, UniProt P42345)
# Construct: purchased Invitrogen (Carlsbad, Calif.)
# Sequence (P42345 1360-2549 limits assumed): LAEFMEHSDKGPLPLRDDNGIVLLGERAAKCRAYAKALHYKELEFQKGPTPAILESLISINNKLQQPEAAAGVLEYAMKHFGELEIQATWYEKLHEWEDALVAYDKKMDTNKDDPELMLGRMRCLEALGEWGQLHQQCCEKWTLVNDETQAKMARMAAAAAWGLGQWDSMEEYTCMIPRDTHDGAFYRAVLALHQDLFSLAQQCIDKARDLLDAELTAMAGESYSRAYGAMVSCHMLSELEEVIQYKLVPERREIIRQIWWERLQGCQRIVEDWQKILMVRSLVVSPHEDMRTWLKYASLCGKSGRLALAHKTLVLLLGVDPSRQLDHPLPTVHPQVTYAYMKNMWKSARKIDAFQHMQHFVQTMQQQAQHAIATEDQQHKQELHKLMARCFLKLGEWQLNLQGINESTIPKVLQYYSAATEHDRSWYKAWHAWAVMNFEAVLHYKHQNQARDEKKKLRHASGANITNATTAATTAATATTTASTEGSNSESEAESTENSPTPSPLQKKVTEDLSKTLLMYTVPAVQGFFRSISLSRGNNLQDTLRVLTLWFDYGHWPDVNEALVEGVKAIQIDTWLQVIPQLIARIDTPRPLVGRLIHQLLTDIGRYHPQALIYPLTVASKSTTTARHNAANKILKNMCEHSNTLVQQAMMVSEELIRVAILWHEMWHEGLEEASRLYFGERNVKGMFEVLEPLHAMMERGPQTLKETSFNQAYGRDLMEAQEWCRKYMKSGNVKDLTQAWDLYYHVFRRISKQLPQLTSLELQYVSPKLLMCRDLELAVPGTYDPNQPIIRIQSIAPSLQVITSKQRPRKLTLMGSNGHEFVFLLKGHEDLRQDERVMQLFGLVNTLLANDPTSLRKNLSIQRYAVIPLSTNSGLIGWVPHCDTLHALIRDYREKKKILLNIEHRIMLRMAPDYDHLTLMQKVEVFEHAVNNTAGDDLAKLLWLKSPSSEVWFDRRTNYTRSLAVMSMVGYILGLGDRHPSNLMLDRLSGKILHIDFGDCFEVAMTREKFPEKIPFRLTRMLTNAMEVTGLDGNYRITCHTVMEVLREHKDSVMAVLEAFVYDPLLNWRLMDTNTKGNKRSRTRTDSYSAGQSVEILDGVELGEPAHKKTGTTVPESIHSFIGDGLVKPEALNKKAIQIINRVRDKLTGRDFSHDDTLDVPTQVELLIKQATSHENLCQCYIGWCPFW
# experimentNotes: In vitro mTOR assay (Lanthascreen)
# Type: biochemical
# measurementSetup: average if run more than once
Note to self: IC50 under 0.008 µM means t, ties and anything higher get f.

Record excerpt, results attached:
compound	assignedLabel
CS(=O)(=O)Nc1cc(-c2ccc3nccc(C4CCOCC4)c3c2)cnc1Cl	t
COCC1CCCN1c1ccnc2ccc(-c3cnc(Cl)c(NS(C)(=O)=O)c3)cc12 (centres unmarked)	f
O=S(=O)(Nc1cc(-c2ccc3nccc(N4CCOCC4)c3c2)cnc1Cl)N1CCOCC1	f
COCCN(C)S(=O)(=O)Nc1cc(-c2ccc3ncc(=O)n(-c4ccccc4)c3c2)cnc1Cl	t
CS(=O)(=O)Nc1cc(-c2ccc3nccc(NC4CCNCC4)c3c2)cnc1Cl	f

As a next step, examine the compound that follows.
In: Dear colleague, could you confirm whether IC50 of `COCCN(C)c1ccnc2ccc(-c3cnc(Cl)c(NS(=O)(=O)N(C)CCOC)c3)cc12` falls below 0.008 µM? Thanks.
Out: f

---

Can you tell me IC50 for the items I'm about to list?
# Test system: phosphorylation of Akt at Ser473
# experimentNotes: Cell-based phospho-Akt Ser473 assay (HCT116 cell)
# measurementSetup: HCT 116 human colon carcinoma cells, IGF-1 stimulated; average
One number for each entry, in µM.

compound	IC50 / µM
O=S(=O)(Nc1cc(-c2ccc3ncc(NCC4CCCCC4)nc3c2)cnc1Cl)c1ccc(F)cc1	0.151
COc1nc(-c2cnc(Cl)c(NS(=O)(=O)c3ccc(F)cc3)c2)cc2cccnc12	0.806
O=S(=O)(Nc1cc(-c2ccnc3cccnc23)cnc1Cl)c1ccc(F)cc1	1.73

// for each compound in input: emit IC50
1. O=S(=O)(Nc1cc(-c2ccc3ncc(NCCc4ccccc4)nc3c2)cnc1Cl)c1ccc(F)cc1
2. COCC1CCCN1c1cnc2ccc(-c3cnc(Cl)c(NS(=O)(=O)c4ccc(F)cc4)c3)cc2n1 (stereo not shown)
3. CC(C)(C)OC(=O)N1CCCC(CNc2cnc3ccc(-c4cnc(Cl)c(NS(=O)(=O)c5ccc(F)cc5)c4)cc3n2)C1 (stereo not shown)
4. COc1ccc(S(=O)(=O)Nc2cc(-c3ccc4nc(NC(C)=O)ccc4c3)cnc2Cl)cc1
5. COc1ccc(S(=O)(=O)Nc2cc(-c3ccc4nccc(N(C)C)c4c3)cnc2Cl)cc1

Out:
1. 0.188
2. 0.0434
3. 0.136
4. 0.0646
5. 0.273

// for each compound in input: emit IC50
1. O=S(=O)(Nc1cc(-c2ccc3nccc(N4CCCCC4)c3c2)cnc1Cl)c1ccc(F)cc1
2. O=S(=O)(Nc1cc(-c2ccc3ncc(N4CCC(F)(F)CC4)nc3c2)cnc1Cl)c1ccc(F)cc1
3. Nc1nc2ccc(-c3cnc(Cl)c(NS(=O)(=O)c4ccc(F)cc4)c3)cc2[nH]c1=O
4. CC1CN(c2ccnc3ccc(-c4cnc(Cl)c(NS(=O)(=O)c5ccc(F)cc5)c4)cc23)CC(C)O1 (stereo not shown)

Out:
1. 0.159
2. 0.0635
3. 5.04
4. 0.0228

// for each compound in input: emit IC50
1. O=S(=O)(Nc1cc(-c2ccc3nccc(-c4ccccc4)c3c2)cnc1Cl)c1ccc(F)cc1
2. O=S(=O)(Nc1cc(-c2ccc3nccc(N4CCOCC4)c3c2)cnc1Cl)c1ccccc1F
3. O=S(=O)(Nc1cc(-c2ccc3nccc(N4CCOCC4)c3c2)cnc1Cl)c1c(Cl)cccc1Cl
4. O=S(=O)(Nc1cc(-c2ccc3ncc(NCC4CCCNC4)nc3c2)cnc1Cl)c1ccc(F)cc1 (stereo not shown)

Out:
0.0914
0.0117
0.0376
2.63

---

Can you tell me IC50 for the items I'm about to list?
# targetUnderTest: PI3Kβ (Homo sapiens)
# Construct: Full length p110 subunits of PI3K α, β and δ, N-terminally labeled with polyHis tag; polyHis (N); made in house; host or cells: Sf9 insect cells (baculovirus)
# Sequence (P42338 whole entry): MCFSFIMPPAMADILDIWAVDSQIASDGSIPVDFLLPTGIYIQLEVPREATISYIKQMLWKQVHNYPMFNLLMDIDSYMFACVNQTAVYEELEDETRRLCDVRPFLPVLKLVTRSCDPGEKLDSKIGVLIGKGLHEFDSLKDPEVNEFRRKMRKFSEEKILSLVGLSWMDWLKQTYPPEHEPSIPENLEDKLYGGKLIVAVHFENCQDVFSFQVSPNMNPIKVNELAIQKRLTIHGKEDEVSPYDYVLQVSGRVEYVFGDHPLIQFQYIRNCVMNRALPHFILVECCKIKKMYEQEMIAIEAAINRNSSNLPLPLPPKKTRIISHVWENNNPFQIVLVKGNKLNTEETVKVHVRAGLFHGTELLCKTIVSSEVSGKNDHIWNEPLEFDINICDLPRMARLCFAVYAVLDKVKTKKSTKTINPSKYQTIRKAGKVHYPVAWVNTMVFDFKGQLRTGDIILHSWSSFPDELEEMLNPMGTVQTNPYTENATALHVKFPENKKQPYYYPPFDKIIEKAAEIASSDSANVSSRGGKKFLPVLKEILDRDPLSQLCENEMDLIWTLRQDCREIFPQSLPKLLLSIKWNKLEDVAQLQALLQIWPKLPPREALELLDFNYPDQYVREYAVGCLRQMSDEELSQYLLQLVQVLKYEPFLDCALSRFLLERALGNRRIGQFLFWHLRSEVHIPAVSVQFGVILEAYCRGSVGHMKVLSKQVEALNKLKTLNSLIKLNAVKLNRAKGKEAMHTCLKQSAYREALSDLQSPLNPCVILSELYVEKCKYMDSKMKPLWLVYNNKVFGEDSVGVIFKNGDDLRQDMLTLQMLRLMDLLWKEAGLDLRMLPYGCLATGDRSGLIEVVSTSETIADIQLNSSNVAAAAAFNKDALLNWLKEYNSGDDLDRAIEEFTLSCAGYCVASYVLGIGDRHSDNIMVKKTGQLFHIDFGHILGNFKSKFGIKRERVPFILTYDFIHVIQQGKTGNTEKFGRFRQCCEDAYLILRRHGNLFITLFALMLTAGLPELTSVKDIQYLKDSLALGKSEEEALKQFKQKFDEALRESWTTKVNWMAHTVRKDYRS
# Sequence (P27986 whole entry partner): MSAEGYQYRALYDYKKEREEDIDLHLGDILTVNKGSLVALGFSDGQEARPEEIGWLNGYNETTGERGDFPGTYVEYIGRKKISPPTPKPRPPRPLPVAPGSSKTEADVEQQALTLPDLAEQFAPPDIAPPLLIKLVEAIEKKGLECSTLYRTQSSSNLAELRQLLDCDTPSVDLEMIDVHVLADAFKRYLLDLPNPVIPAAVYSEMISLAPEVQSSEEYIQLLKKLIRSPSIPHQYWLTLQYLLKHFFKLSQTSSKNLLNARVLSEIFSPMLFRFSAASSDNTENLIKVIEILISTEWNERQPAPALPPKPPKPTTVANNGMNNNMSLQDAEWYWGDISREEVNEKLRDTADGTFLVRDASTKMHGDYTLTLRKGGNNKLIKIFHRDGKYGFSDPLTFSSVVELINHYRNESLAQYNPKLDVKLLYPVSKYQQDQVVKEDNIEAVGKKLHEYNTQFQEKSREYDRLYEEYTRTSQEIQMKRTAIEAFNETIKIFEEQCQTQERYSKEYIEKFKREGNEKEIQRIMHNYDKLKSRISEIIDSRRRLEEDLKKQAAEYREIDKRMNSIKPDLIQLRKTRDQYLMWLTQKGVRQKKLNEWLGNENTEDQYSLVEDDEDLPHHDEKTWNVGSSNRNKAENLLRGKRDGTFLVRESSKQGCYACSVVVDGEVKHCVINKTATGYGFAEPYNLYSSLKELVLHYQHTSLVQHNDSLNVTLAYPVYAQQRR
# experimentNotes: In vitro PI3 kinase enzyme assay (PI3K ATP loss), beta
# Type: biochemical
# measurementSetup: average if run more than once
Answers are plain numbers, in µM.

molecule	unit	IC50
O=S(=O)(Nc1cc(-c2ccc3ncc(N4CCCCC4)nc3c2)cnc1Cl)c1ccc(F)cc1	µM	0.0842
CS(=O)(=O)Nc1cc(-c2ccc3nccc(N4CCOCC4)c3c2)cnc1Cl	µM	0.156
COc1ncccc1-c1ccnc2ccc(-c3cnc(Cl)c(NS(=O)(=O)c4ccc(F)cc4)c3)cc12	µM	0.0212

Now look at this entry.
In: Can you share its IC50? I mean this molecule: O=S(=O)(Nc1cc(-c2ccc3nccc(N4CCC(O)C4)c3c2)cnc1Cl)c1ccc(F)cc1 (stereo not shown)
Out: 0.0778

---

# Tested on: phosphorylation of Akt at Ser473
# experimentNotes: Cell-based phospho-Akt Ser473 assay (HCT116 cell)
# measurementSetup: HCT 116 human colon carcinoma cells, IGF-1 stimulated; average
endpoint: log10(IC50) (log10 of the value in µM)
The base-10 logarithm of IC50, taken with IC50 in µM, is what appears here.

compound	targetUnderTest	log10(IC50)
O=S(=O)(Nc1cc(-c2ccc3ncc(NCCOc4ccccc4)nc3c2)cnc1Cl)c1ccc(F)cc1	phosphorylation of Akt at Ser473	-1.35
COCCOc1ccnc2ccc(-c3cnc(Cl)c(NS(=O)(=O)c4ccc(F)cc4)c3)cc12	phosphorylation of Akt at Ser473	-1.60
O=S(=O)(Nc1cc(-c2ccc3ncc(N4C[C@H]5CC[C@H](CC5)C4)nc3c2)cnc1Cl)c1ccc(F)cc1	phosphorylation of Akt at Ser473	-0.58
O=S(=O)(Nc1cc(-c2ccc3nccc(N4CCC(O)CC4)c3c2)cnc1Cl)c1ccc(F)cc1	phosphorylation of Akt at Ser473	-0.75
O=S(=O)(Nc1cc(-c2ccc3ncc(N4CCOCC4)nc3c2)cnc1Cl)c1ccc(F)cc1	phosphorylation of Akt at Ser473	-2.21

// for each compound in input: emit log10(IC50)
1. O=S(=O)(Nc1cc(-c2ccc3nccc(Cl)c3c2)cnc1Cl)c1ccc(F)cc1
2. O=S(=O)(Nc1cc(-c2ccc3ncc(O)cc3c2)cnc1Cl)c1ccc(F)cc1
3. COc1cnc2ccc(-c3cnc(Cl)c(NS(=O)(=O)c4ccc(F)cc4)c3)cc2c1
4. O=S(=O)(Nc1cc(-c2ccc3nccc(N4CCC(O)C4)c3c2)cnc1Cl)c1ccc(F)cc1 (stereo not shown)
5. O=S(=O)(Nc1cc(-c2ccc3ncc(N4CCCCC4)nc3c2)cnc1Cl)c1ccc(F)cc1
6. CC(C)(C)OC(=O)NCCOc1ccnc2ccc(-c3cnc(Cl)c(NS(=O)(=O)c4ccc(F)cc4)c3)cc12
7. CC(C)N1CCN(c2ccnc3ccc(-c4cnc(Cl)c(NS(=O)(=O)c5ccc(F)cc5)c4)cc23)CC1

Out:
1. -0.96
2. -0.18
3. -0.73
4. 0.47
5. -0.85
6. 0.22
7. -1.72

// for each compound in input: emit log10(IC50)
1. O=S(=O)(Nc1cc(-c2ccc3ncccc3c2)cnc1Cl)c1ccc(F)cc1
2. CC(=O)N1CCN(c2cnc3ccc(-c4cnc(Cl)c(NS(=O)(=O)c5ccc(F)cc5)c4)cc3n2)CC1
3. CS(=O)(=O)Nc1cc(-c2ccc3nccc(Oc4ccccc4)c3c2)cnc1Cl
4. CC(c1ccccc1)N1CCN(c2ccnc3ccc(-c4cnc(Cl)c(NS(=O)(=O)c5ccc(F)cc5)c4)cc23)CC1 (stereo not shown)

Out:
1: 0.11; 2: -1.63; 3: 0.06; 4: -0.46

---

# targetUnderTest: PI3Kβ (Homo sapiens)
# Construct: Full length p110 subunits of PI3K α, β and δ, N-terminally labeled with polyHis tag; polyHis (N); made in house; host or cells: Sf9 insect cells (baculovirus)
# experimentNotes: In vitro PI3 kinase enzyme assay (PI3K ATP loss), beta
# Assay type: biochemical
# measurementSetup: average if run more than once
Can you tell me IC50 for the items I'm about to list?
Answers are plain numbers, in µM.

Worked examples follow.
molecule	targetUnderTest	unit	IC50
COCCOc1ccnc2ccc(-c3cnc(Cl)c(NS(=O)(=O)c4ccc(F)cc4)c3)cc12	PI3Kβ (Homo sapiens)	µM	0.0144
CC(=O)OCc1cc(-c2ccc3nccc(N4CCOCC4)c3c2)cnc1Cl	PI3Kβ (Homo sapiens)	µM	3.67
COc1cnc2ccc(-c3cnc(Cl)c(NS(=O)(=O)c4ccc(F)cc4)c3)cc2c1	PI3Kβ (Homo sapiens)	µM	0.0253
O=S(=O)(Nc1cc(-c2ccc3ncc(NCCc4ccccc4)nc3c2)cnc1Cl)c1ccc(F)cc1	PI3Kβ (Homo sapiens)	µM	0.0597
COCCNc1cnc2ccc(-c3cnc(Cl)c(NS(=O)(=O)c4ccc(F)cc4)c3)cc2n1	PI3Kβ (Homo sapiens)	µM	0.0334
CC(c1ccccc1)N1CCN(c2ccnc3ccc(-c4cnc(Cl)c(NS(=O)(=O)c5ccc(F)cc5)c4)cc23)CC1 (centres unmarked)	PI3Kβ (Homo sapiens)	µM	0.0449
O=S(=O)(Nc1cc(-c2ccc3cnncc3c2)cnc1Cl)c1ccc(F)cc1	PI3Kβ (Homo sapiens)	µM	0.698
COc1ccnc2ccc(-c3cnc(Cl)c(NS(=O)(=O)c4ccc(F)cc4)c3)cc12	PI3Kβ (Homo sapiens)	µM	0.0147
CN(C)c1cc(-c2ccc3nccc(Cl)c3c2)cnc1Cl	PI3Kβ (Homo sapiens)	µM	2.24
O=S(=O)(Nc1cc(-c2cccc3cnncc23)cnc1Cl)c1ccc(F)cc1	PI3Kβ (Homo sapiens)	µM	4.12

// for each molecule in input: emit IC50
1. O=S(=O)(Nc1cc(-c2ccc3nccc(N4CCOCC4)c3c2)cnc1Cl)c1ccccc1Cl
2. O=S(=O)(Nc1cc(-c2ccnc3cccnc23)cnc1Cl)c1ccc(F)cc1
3. O=S(=O)(Nc1cc(-c2ccc3ncc(NCC4CCCCC4)nc3c2)cnc1Cl)c1ccc(F)cc1

Out:
1. 0.0219
2. 0.62
3. 0.0532

// for each molecule in input: emit IC50
1. NCc1cc(-c2ccc3nccc(N4CCOCC4)c3c2)cnc1Cl
2. Nc1nc2ccc(-c3cnc(Cl)c(NS(=O)(=O)c4ccc(F)cc4)c3)cc2[nH]c1=O
3. CC(C)(C)OC(=O)NCCOc1ccnc2ccc(-c3cnc(Cl)c(NS(=O)(=O)c4ccc(F)cc4)c3)cc12
4. O=S(=O)(Nc1cc(-c2ccc3ncc(NCCN4CCCCC4)nc3c2)cnc1Cl)c1ccc(F)cc1
5. CN(CC#N)c1cnc2ccc(-c3cnc(Cl)c(NS(=O)(=O)c4ccc(F)cc4)c3)cc2n1
6. O=S(=O)(Nc1cc(-c2ccc3ncc(NCC4CCCNC4)nc3c2)cnc1Cl)c1ccc(F)cc1 (centres unmarked)

Out:
1: 26.7; 2: 0.0648; 3: 0.682; 4: 0.0155; 5: 0.0934; 6: 0.0463

// for each molecule in input: emit IC50
1. O=S(=O)(Nc1cc(-c2ccc3ncc(O)cc3c2)cnc1Cl)c1ccc(F)cc1
2. CC(c1ccccc1)N1CCN(c2ccnc3ccc(-c4cnc(Cl)c(N(C)C)c4)cc23)CC1 (centres unmarked)
3. COc1ccc(S(=O)(=O)Nc2cc(-c3ccc4nc(N)ccc4c3)cnc2Cl)cc1
4. COc1ccc(CNc2cnc3ccc(-c4cnc(Cl)c(NS(=O)(=O)c5ccc(F)cc5)c4)cc3n2)cc1
5. COC1CCN(c2cnc3ccc(-c4cnc(Cl)c(NS(=O)(=O)c5ccc(F)cc5)c4)cc3n2)CC1
6. COCC1CCCN1c1cnc2ccc(-c3cnc(Cl)c(NS(=O)(=O)c4ccc(F)cc4)c3)cc2n1 (centres unmarked)

Out:
1. 0.0552
2. 4.22
3. 0.18
4. 0.0502
5. 0.0344
6. 0.0358

// for each molecule in input: emit IC50
1. CC1CN(c2cnc3ccc(-c4cnc(Cl)c(NS(=O)(=O)c5ccc(F)cc5)c4)cc3n2)CC(C)O1 (centres unmarked)
2. CC1CN(c2ccnc3ccc(-c4cnc(Cl)c(NS(=O)(=O)c5ccc(F)cc5)c4)cc23)CC(C)O1 (centres unmarked)
3. O=S(=O)(Nc1cc(-c2ccc3ncc(N4CCC(F)(F)CC4)nc3c2)cnc1Cl)c1ccc(F)cc1
4. O=S(=O)(Nc1cc(-c2ccc3nccc(N4CCN(Cc5ccccc5)CC4)c3c2)cnc1Cl)c1ccc(F)cc1
5. O=S(=O)(Nc1cc(-c2ccc3nccc(N4CCOCC4)c3c2)cnc1Cl)c1ccccc1F

Out:
[0.0648, 0.0302, 0.0824, 0.0339, 0.0248]

// for each molecule in input: emit IC50
1. CC(Nc1cnc2ccc(-c3cnc(Cl)c(NS(=O)(=O)c4ccc(F)cc4)c3)cc2n1)c1ccc(F)cc1 (centres unmarked)
2. COc1ccc(S(=O)(=O)Nc2cc(-c3ccc4nccc(N5CCC(OC)CC5)c4c3)cnc2Cl)cc1

Out:
1: 0.0436; 2: 0.0366

// data source = patent US8415376B2
